target.or.test.system: UniProt Q96RU2
assay.info: Concentration-response biochemical assay confirming initial hits as inhibitors of ubiquitin-specific protease 28 (AID 1645866)
reported.conditions: purified USP28, ubiquitin-rhodamine fluorescence, 30 min
Activity calls are given as the source filed them.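 Rule for the calls: active = in confirmatory dose-response testing, peak deubiquitinase inhibition of 30% or more; inactive = the rest.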
Just give me one of these, please: true (1) = active, false (0) = inactive

1) COc1ccc(OC)c(-c2c(C#N)c(C)nc3c2N2CCC3CC2)c1 :: true (1)
2) CCn1ccc2c(cc(C(=O)Nc3ccccc3F)n2C)c1=O :: true (1)
3) Cc1cc(N2CCC(NC(=O)NCc3ccc(F)cc3)C2=O)ccc1F (stereo unspecified) :: true (1)
4) O=c1c2cnc3nc(-c4cccnc4)nn3c2ccn1CCc1ccccc1 :: false (0)
5) Nc1c(C(=O)Nc2ccc3c(c2)OCO3)sc2nc(-c3cccnc3)ccc12 :: true (1)

# ---- query compound ----
Please let me know the test result on file for COc1ccc2[nH]cc(S(=O)(=O)c3ccc(C)c(F)c3)c(=O)c2c1 . true (1)

====

target.or.test.system: Ubiquitin carboxyl-terminal hydrolase 28 (Homo sapiens) (UniProt Q96RU2)
Sequence (Q96RU2 whole entry, looked up): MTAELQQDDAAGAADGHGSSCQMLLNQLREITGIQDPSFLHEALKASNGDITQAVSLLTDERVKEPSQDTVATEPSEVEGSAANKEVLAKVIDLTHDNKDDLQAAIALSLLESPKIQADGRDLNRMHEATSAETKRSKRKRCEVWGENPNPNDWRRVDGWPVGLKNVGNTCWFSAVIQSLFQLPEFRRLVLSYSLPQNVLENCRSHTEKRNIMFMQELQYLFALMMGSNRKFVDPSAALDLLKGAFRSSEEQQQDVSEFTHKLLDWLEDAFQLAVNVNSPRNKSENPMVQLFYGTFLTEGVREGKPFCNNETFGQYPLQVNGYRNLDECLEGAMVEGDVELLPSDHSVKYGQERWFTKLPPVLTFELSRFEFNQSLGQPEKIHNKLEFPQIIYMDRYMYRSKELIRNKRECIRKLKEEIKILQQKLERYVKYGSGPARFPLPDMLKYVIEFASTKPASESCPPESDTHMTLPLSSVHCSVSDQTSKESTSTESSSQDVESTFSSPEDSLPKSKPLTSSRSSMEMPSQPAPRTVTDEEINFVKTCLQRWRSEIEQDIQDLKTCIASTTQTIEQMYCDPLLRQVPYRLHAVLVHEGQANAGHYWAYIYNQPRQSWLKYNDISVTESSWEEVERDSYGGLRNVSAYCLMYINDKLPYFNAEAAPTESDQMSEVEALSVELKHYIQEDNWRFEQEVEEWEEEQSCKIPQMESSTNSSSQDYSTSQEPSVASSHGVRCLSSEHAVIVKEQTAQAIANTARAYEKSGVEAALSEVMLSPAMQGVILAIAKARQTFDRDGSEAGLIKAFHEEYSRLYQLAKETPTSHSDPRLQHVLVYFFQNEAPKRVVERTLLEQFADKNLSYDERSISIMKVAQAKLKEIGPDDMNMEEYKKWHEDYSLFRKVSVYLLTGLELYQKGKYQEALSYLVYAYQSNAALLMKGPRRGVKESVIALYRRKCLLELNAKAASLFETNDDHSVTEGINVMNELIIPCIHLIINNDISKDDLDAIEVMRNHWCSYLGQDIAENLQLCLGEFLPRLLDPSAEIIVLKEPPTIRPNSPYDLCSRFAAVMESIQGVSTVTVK
assay.info: Concentration-response biochemical assay confirming initial hits as inhibitors of ubiquitin-specific protease 28 (AID 1645866)
reported.conditions: purified USP28, ubiquitin-rhodamine fluorescence, 30 min
value.type: pIC50
API: returns pIC50 as number; meaning -log10 of concentration in mol/L.

1) CCN1C(SCc2ccc(F)cc2)=NS(=O)(=O)c2ccccc21 :: 4.57
2) COc1c2c(cc3cc(O)c4c(=O)cc(C)oc4c13)CCC2=O :: 4.54

Pending compound:
Looking for the measured pIC50 of Cc1ccc(Cn2nnc(C(=O)NCc3ccco3)c2-n2cccc2)cc1 , can you help? 5.19

====

target.or.test.system: Ubiquitin carboxyl-terminal hydrolase 28 (Homo sapiens) (UniProt Q96RU2)
assay.info: Concentration-response biochemical assay confirming initial hits as inhibitors of ubiquitin-specific protease 28 (AID 1645866)
reported.conditions: purified USP28, ubiquitin-rhodamine fluorescence, 30 min
Active and inactive are the calls of the source.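 Rule for the calls: active = in confirmatory dose-response testing, peak deubiquitinase inhibition of 30% or more; inactive = the rest.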
Just give me one of these, please: active, inactive

See these solved cases before continuing.
1. CC1Oc2cc3c(-c4c(O)cc(O)c5c(O)c6c(cc45)OC(C)C(C)C6=O)c(O)cc(O)c3c(O)c2C(=O)C1C (stereo not given) :: active
2. COc1ccc(-c2cc3nc([C@H](C)NC(=O)Cc4cccc(F)c4)nn3cn2)cc1 :: active
3. CCn1c(=O)c(=O)[nH]c2cc(C(=O)Nc3cccc(-c4csc(C)n4)c3)ccc21 :: active
4. N[C@@H](Cc1ccccc1)C(=O)N1CCC2(CC1)CN(C(=O)c1ccc(Cl)cc1)CCO2 :: inactive
5. CC(=O)Nc1ccc(S(=O)(=O)N2CCCC(C(=O)Nc3cccc4ccccc34)C2)cc1 (stereo not given) :: active

Please let me know the test result on file for Cc1ccc(Cn2nnc(-c3noc(-c4ccc[nH]4)n3)c2C)cc1 . active

How about O=c1c2cnc(N3CCOCC3)nc2ccn1CCc1ccccc1 ? active

How about Cc1nc(-c2ccccc2F)sc1C(=O)Nc1cccnc1 ? active

How about Cc1cc(NC(=O)c2nnn(-c3ccccc3Cl)c2C)no1 ? active

How about COC(=O)c1cc(C#N)c(NCc2ccccc2)nc1C ? active

How about COc1ccc(C2C(C(=O)Nc3ccccc3OC)=C(C)Nc3nnnn32)cc1Br (stereo not given) ? active

====

target.or.test.system: Ubiquitin carboxyl-terminal hydrolase 28 (Homo sapiens)
assay.info: Concentration-response biochemical assay confirming initial hits as inhibitors of ubiquitin-specific protease 28 (AID 1645866)
reported.conditions: purified USP28, ubiquitin-rhodamine fluorescence, 30 min
Activity calls are given as the source filed them.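 The calls were made as follows: active = in confirmatory dose-response testing, peak deubiquitinase inhibition of 30% or more; inactive = the rest.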
Just give me one of these, please: active, inactive

See these solved cases before continuing.
1. COC(=O)C1C(c2ccc(Cl)cc2Cl)C2(C(=O)c3ccccc3C2=O)C2C=Cc3ccccc3N12 (centres undefined) :: inactive
2. Cc1cc(Cl)ccc1Nc1nc(Nc2cccc(F)c2)nc2nccnc12 :: inactive
3. N#Cc1ccc(Cn2nnc(-c3cccc(Cl)c3)n2)cc1 :: active

Please let me know the test result on file for O=C(Nc1ccccc1Sc1ncc(-c2ccc(Cl)cc2)cn1)c1ccco1 . active

How about C/C1=C/C=C/[C@H](C)[C@H](O)[C@@H](C)[C@@H](O)[C@@H](C)[C@H](O)[C@H](C)[C@@H](O)[C@@H](C)/C=C(/C)C(=O)c2c(O)c(C)cc3c2C(=O)C=C(NC1=O)C3=O ? inactive

How about Cc1ccc2[nH]c(=O)c(CN(CC3CCCO3)S(=O)(=O)c3ccccc3)cc2c1 (centres undefined) ? active

How about CNC(=O)c1cc2c(=O)n3cccc(C)c3nc2n1Cc1ccccc1 ? active

How about Cc1ccc(NC(=O)c2ccc(Nc3nnc(C)c4ccccc34)cc2)cc1 ? active

How about CN1CCN(C(=O)c2ccn(-c3ccc4ccc(-c5cnn(C)c5)cn34)n2)CC1 ? inactive

====

target.or.test.system: Ubiquitin carboxyl-terminal hydrolase 28 (Homo sapiens) (UniProt Q96RU2)
assay.info: Concentration-response biochemical assay confirming initial hits as inhibitors of ubiquitin-specific protease 28 (AID 1645866)
reported.conditions: purified USP28, ubiquitin-rhodamine fluorescence, 30 min
Active and inactive are the calls of the source.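 The calls were made as follows: active = in confirmatory dose-response testing, peak deubiquitinase inhibition of 30% or more; inactive = the rest.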
Just give me one of these, please: 1 (yes) (active), 0 (no) (inactive)

1. NC(=O)CCC(=O)N[C@H]1C[C@H]2CN(Cc3ccccc3)c3ccccc3CN2C1 :: 0 (no)
2. O=C(COC(=O)c1ccc(Cl)cc1)Nc1ccc2[nH]c(=O)[nH]c2c1 :: 1 (yes)
3. CCOc1cccc(NC(=O)c2ccc(S(=O)(=O)N3CCc4ccccc4C3)cc2)c1 :: 1 (yes)
4. CCn1ccc2c(cc(C(=O)Nc3cccc(OC)c3)n2C)c1=O :: 1 (yes)
5. CO/C=C/C(=O)c1cc2cnc3c(=N)cc(NC(C)=O)c([nH]1)c23 :: 0 (no)
6. Cc1nc2nc(SCc3nc4ccccc4n3C)[nH]c2cc1Br :: 1 (yes)
7. O=C(Nc1ccc(N2CCOCC2)cc1)c1cc(=O)[nH]c2ccccc12 :: 1 (yes)
8. Cc1ccccc1Cn1ccc(NC(=O)c2noc(C)c2[N+](=O)[O-])n1 :: 1 (yes)
9. O=C(c1ccc(COc2cccc3ccccc23)o1)N1CCC(Cc2ccccc2)CC1 :: 0 (no)
10. Cc1ccccc1Cc1nc(-c2ccc(=O)[nH]c2)no1 :: 1 (yes)

Please let me know the test result on file for CCOc1ccccc1NC(=O)Cn1c(=O)n(CCCC(=O)NCc2ccc(C)cc2)c(=O)c2sccc21 . 1 (yes)

How about O=C(NCCc1ccccc1F)c1cn2cc(Cl)ccc2n1 ? 1 (yes)

How about O=C(CCCn1c(=O)c2ccccc2n(CC(=O)NCc2ccccc2Cl)c1=O)NCc1ccc2c(c1)OCO2 ? 1 (yes)

====

target.or.test.system: Ubiquitin carboxyl-terminal hydrolase 28 (Homo sapiens) (UniProt Q96RU2)
assay.info: Concentration-response biochemical assay confirming initial hits as inhibitors of ubiquitin-specific protease 28 (AID 1645866)
reported.conditions: purified USP28, ubiquitin-rhodamine fluorescence, 30 min
Active and inactive are the calls of the source.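 Rule for the calls: active = in confirmatory dose-response testing, peak deubiquitinase inhibition of 30% or more; inactive = the rest.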
Just give me one of these, please: active, inactive

See these solved cases before continuing.
1) Cc1ccc(S(=O)(=O)N(C)C)cc1NC(=O)Cc1ccc(Cl)c(Cl)c1 :: active
2) O=C(COC(=O)c1ccc(NS(=O)(=O)c2ccc3c(c2)OCCO3)cc1)NCc1ccc(Cl)cc1 :: active
3) O=C(COc1cccc2ccc(N3CCC(Cc4ccccc4)CC3)nc12)NCc1ccc(F)cc1 :: active
4) CCCCN(C)C(=O)c1cc2c(=O)n3cccc(C)c3nc2n1Cc1ccccc1 :: inactive
5) CN(C(=O)c1ccncc1)[C@H]1CC[C@@]2(C)C[C@H](c3ccccc3)C[C@](C)(O2)[C@@H]1O :: inactive

Please let me know the test result on file for CCc1nc(-c2cccc(NC(=O)c3ccc(C#N)cc3F)c2)no1 . active

How about COc1ccccc1CNC(=O)CCCn1c(=O)c2ccccc2n(CC(=O)N2CCN(c3ccccc3)CC2)c1=O ? active

How about COC(=O)c1cc(C)sc1NC(=O)c1cccc(OC)c1OC ? inactive

How about Cc1ccc2c(C)nc(Nc3ncc4c(n3)CC(c3ccco3)CC4=O)nc2c1 (configuration not stated) ? active

====

target.or.test.system: Ubiquitin carboxyl-terminal hydrolase 28 (Homo sapiens)
assay.info: Concentration-response biochemical assay confirming initial hits as inhibitors of ubiquitin-specific protease 28 (AID 1645866)
reported.conditions: purified USP28, ubiquitin-rhodamine fluorescence, 30 min
The source made the active and inactive calls.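 Rule for the calls: active = in confirmatory dose-response testing, peak deubiquitinase inhibition of 30% or more; inactive = the rest.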
Just give me one of these, please: Yes for active, No for inactive

See these solved cases before continuing.
1) COc1ccc(NC(=O)CNC(=O)c2ccc3nc(-n4cccc4)sc3c2)cc1 :: Yes
2) Cc1ccc(C(=O)Nc2nc3n(n2)C(c2ccccc2)CC(=O)N3)cc1 (centres undefined) :: Yes

Please let me know the test result on file for O=C(COc1cccc(-n2cnnn2)c1)Nc1ccc2c(c1)OCCO2 . Yes

How about Nc1nc(-c2ccc[nH]2)cs1 ? No
